Origin of measurements: the Human Domainome abundance scans (Beltran et al. 2025)

Listing of entries alongside the reported abundance fitness.
B1: POU domain, class 4, transcription factor 1, residues 266 to 347; numbered along this chain, Q01851 (parent)
chain: RELEAFAERFKQRRIKLGVTQADVGSALANLKIPGVGSLSQSTICRFESLTLSHNNMIALKPILQAWLEEAEGAQREKMNKP

variants of: B1; assay: abundance fitness (aPCA) (normalised: wild type 0, dead -1); higher = more abundant; growth selection in yeast, the domain comes from the species named; conditions: Homo sapiens
property.name: abundance fitness

# sequence.input, result
measured = [
    ("RELEAFAERYKQRRIKLGVTQADVGSALANLKIPGVGSLSQSTICRFESLTLSHNNMIALKPILQAWLEEAEGAQREKMNKP", -0.599),
    ("RGLEAFAERFKQRRIKLGVTQADVGSALANLKIPGVGSLSQSTICRFESLTLSHNNMIALKPILQAWLEEAEGAQREKMNKP", -0.102),
    ("RELEAFAIRFKQRRIKLGVTQADVGSALANLKIPGVGSLSQSTICRFESLTLSHNNMIALKPILQAWLEEAEGAQREKMNKP", -0.234),
    ("RELEAFAERFKQRRIKLGVTQADVGSALANLKIPGVGSLSQSTICRFESLTLSHNNMIALKPILQAWLEEAEGNQREKMNKP", -0.019),
    ("RELEAFAERFKQRRIKLGVTQADVGSALANLKIPGVGSLSQSTICRFESLTLSHNNMIALKPILQAWWEEAEGAQREKMNKP", -0.626),
    ("RELEAFAERFKQRRIKLGVTQADVGSALANLKIPGVGSLSQSTICRFESLTLSHNNMIALKPILQAWLEEAWGAQREKMNKP", -0.415),
    ("RELEAFAERFKQRRIKLGVTQADVGSALANLKIPGVGSLSQSTICRFESLTLSHNNMIQLKPILQAWLEEAEGAQREKMNKP", 0.056),
    ("RELEAFAERFKQRRIKLGVTQADVGSALANLKIPGVGSLSQSTICRFESLTLSHNNMIALKPILQAWLEEAEGAQREKMNAP", 0.148),
    ("RELEAFAERFKQRRIKLGVTQADVGSALANLKIPGVASLSQSTICRFESLTLSHNNMIALKPILQAWLEEAEGAQREKMNKP", -0.045),
    ("RELEAFAERFKQRLIKLGVTQADVGSALANLKIPGVGSLSQSTICRFESLTLSHNNMIALKPILQAWLEEAEGAQREKMNKP", -0.768),
    ("RELEAFAERFKQRRCKLGVTQADVGSALANLKIPGVGSLSQSTICRFESLTLSHNNMIALKPILQAWLEEAEGAQREKMNKP", -0.048),
    ("RELEAFAERFKQRRIKLGVTQADVGSALANLKIPGVGSLSQSTICRRESLTLSHNNMIALKPILQAWLEEAEGAQREKMNKP", -0.934),
    ("RELEAFAERFKQRRIKLGVTQADVGSALANLKIPGVGSLSQSTICRFESLTLSHNNMIALKPILQQWLEEAEGAQREKMNKP", -0.046),
    ("RELEAFAERFKQRRIKLGVTQADVGSELANLKIPGVGSLSQSTICRFESLTLSHNNMIALKPILQAWLEEAEGAQREKMNKP", -0.035),
    ("RELEAFAERFKQRRIKLGVTQADVGSALANLKIPGVGSLSQSTICRFESGTLSHNNMIALKPILQAWLEEAEGAQREKMNKP", 0.049),
    ("RELEAFAERFKQSRIKLGVTQADVGSALANLKIPGVGSLSQSTICRFESLTLSHNNMIALKPILQAWLEEAEGAQREKMNKP", 0.014),
]
